The entries below are paired with their reported AC50.
target: Growth hormone secretagogue receptor type 1 (Homo sapiens); note: assay procedure not described here
Sequence (Q92847 whole entry): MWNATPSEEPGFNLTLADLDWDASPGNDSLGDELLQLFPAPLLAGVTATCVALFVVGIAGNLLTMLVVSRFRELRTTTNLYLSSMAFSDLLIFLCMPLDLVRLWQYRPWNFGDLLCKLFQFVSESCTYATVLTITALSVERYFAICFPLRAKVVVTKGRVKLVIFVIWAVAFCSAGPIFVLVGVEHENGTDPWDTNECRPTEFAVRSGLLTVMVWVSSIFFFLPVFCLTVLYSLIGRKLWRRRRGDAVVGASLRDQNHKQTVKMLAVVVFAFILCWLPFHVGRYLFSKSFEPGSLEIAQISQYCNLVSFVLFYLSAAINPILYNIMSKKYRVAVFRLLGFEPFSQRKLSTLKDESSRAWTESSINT
measured attribute: AC50

>>> reported_measurement("CC1=CC(=O)c2ccccc2C1=O [MENADIONE]")
"> 10 µM"
>>> reported_measurement("CC(=O)c1ccc2c(c1)N(CCCN1CCN(CCO)CC1)c1ccccc1S2 [ACETOPHENAZINE]")
"> 30 µM"
>>> reported_measurement("CN[C@@H](C)[C@H](O)c1ccccc1 [EPHEDRINE]")
"> 30 µM"
>>> reported_measurement("Nc1nc2ccc(OC(F)(F)F)cc2s1 [RILUZOLE]")
"> 30 µM"
>>> reported_measurement("CCOc1cc(N)c([N+](=O)[O-])cc1C(=O)NC1CCN(CC2CC=CCC2)CC1 (stereo unspecified) [CINITAPRIDE]")
"> 30 µM"
>>> reported_measurement("Nc1ncnc2c1ncn2[C@@H]1O[C@H](COP(=O)(O)O)[C@@H](O)[C@H]1O [ADENOSINE PHOSPHATE]")
"> 30 µM"
>>> reported_measurement("CCc1nn(CCCN2CCN(c3cccc(Cl)c3)CC2)c(=O)n1CCOc1ccccc1 [NEFAZODONE]")
"> 30 µM"
>>> reported_measurement("O=C1CCC(N2C(=O)c3ccccc3C2=O)C(=O)N1 (stereo unspecified) [THALIDOMIDE]")
"> 30 µM"
>>> reported_measurement("CO/N=C(\\C(=O)N[C@@H]1C(=O)N2C(C(=O)[O-])=C(C[N+]3(C)CCCC3)CS[C@H]12)c1csc(N)n1")
"> 300 µM"
>>> reported_measurement("CC(C(=O)O)c1ccc(C(=O)c2cccs2)cc1 (stereo unspecified) [SUPROFEN]")
"> 10 µM"
>>> reported_measurement("COc1ccc(C(=O)N2CCN(c3ccc4c(c3)CCC(=O)N4)CC2)cc1OC [VESNARINONE]")
"> 30 µM"
>>> reported_measurement("CC(C)[N+](C)(CCC(C(N)=O)(c1ccccc1)c1ccccc1)C(C)C [ISOPROPAMIDE]")
"> 10 µM"
>>> reported_measurement("CN1CCC2=C(C1)C(c1ccccc1)c1ccccc12 (stereo unspecified) [PHENINDAMINE]")
"> 10 µM"
>>> reported_measurement("COc1ccc2cccc(CCNC(C)=O)c2c1 [AGOMELATINE]")
"> 30 µM"
>>> reported_measurement("Oc1ncnc2[nH]ncc12 [ALLOPURINOL]")
"> 30 µM"
>>> reported_measurement("NC[C@H]1O[C@H](O[C@H]2[C@H](O)[C@@H](O[C@H]3O[C@H](CO)[C@@H](O)[C@H](N)[C@H]3O)[C@H](N)C[C@@H]2N)[C@H](O)[C@@H](O)[C@@H]1O [KANAMYCIN]")
"> 10 µM"
>>> reported_measurement("O=C(C[S+]([O-])C(c1ccccc1)c1ccccc1)NO (stereo unspecified)")
"> 30 µM"
>>> reported_measurement("Cc1ccc(C(=O)c2cc(O)c(O)c([N+](=O)[O-])c2)cc1 [TOLCAPONE]")
"> 10 µM"
>>> reported_measurement("CN(C)C(=O)OC1N=C(c2ccccc2)c2cc(Cl)ccc2N(C)C1=O (stereo unspecified) [CAMAZEPAM]")
"> 30 µM"
>>> reported_measurement("O=C(CCCCCCC(=O)Nc1ccccc1)NO [VORINOSTAT]")
"> 30 µM"
>>> reported_measurement("CCCCCCCCCCCC[N+](C)(C)CCOc1ccccc1 [DOMIPHEN]")
"5.7 µM"

----------
target: Progesterone receptor (Homo sapiens); format: functional; note: assay procedure not described here
Sequence (P06401 whole entry): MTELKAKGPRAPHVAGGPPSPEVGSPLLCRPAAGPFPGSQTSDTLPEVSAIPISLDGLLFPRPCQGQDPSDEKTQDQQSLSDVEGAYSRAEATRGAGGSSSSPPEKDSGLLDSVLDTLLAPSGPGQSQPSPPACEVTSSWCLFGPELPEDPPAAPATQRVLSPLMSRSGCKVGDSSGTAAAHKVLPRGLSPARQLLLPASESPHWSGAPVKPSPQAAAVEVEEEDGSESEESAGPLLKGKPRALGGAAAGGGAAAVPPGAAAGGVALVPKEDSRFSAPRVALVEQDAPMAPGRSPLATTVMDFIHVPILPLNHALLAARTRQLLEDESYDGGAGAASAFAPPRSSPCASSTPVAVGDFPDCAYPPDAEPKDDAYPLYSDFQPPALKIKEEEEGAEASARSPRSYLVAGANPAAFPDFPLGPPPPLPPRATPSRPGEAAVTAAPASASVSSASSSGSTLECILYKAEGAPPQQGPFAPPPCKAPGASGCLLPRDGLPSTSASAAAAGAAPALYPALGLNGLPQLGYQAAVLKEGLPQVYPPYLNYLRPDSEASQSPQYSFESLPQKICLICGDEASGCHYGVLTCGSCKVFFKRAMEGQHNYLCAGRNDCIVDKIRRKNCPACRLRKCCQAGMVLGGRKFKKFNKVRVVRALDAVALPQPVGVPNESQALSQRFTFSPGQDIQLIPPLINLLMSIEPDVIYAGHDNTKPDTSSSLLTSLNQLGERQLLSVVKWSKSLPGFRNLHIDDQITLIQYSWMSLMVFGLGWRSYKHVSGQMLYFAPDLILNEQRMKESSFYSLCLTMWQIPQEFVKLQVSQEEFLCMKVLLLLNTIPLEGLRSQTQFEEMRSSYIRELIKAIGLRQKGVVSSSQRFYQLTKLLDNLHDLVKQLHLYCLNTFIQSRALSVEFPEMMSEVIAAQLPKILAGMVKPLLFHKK
measured attribute: AC50

>>> reported_measurement("Nc1nc(N)c2nc(-c3ccccc3)c(N)nc2n1")
"> 30 µM"
>>> reported_measurement("COc1ccc(C(=O)N2CCN(c3ccc4c(c3)CCC(=O)N4)CC2)cc1OC [VESNARINONE]")
"12 µM"
>>> reported_measurement("CC(=O)O[C@@]12CO[C@@H]1C[C@H](O)[C@@]1(C)C(=O)[C@H](O)C3=C(C)[C@@H](OC(=O)[C@H](O)[C@@H](NC(=O)OC(C)(C)C)c4ccccc4)C[C@@](O)([C@@H](OC(=O)c4ccccc4)[C@H]21)C3(C)C [DOCETAXEL ANHYDROUS]")
"> 30 µM"

----------
target: Alpha-1A adrenergic receptor (Homo sapiens, UniProt P35348); format: functional, cell-based; note: assay procedure not described here
Sequence (P35348 whole entry): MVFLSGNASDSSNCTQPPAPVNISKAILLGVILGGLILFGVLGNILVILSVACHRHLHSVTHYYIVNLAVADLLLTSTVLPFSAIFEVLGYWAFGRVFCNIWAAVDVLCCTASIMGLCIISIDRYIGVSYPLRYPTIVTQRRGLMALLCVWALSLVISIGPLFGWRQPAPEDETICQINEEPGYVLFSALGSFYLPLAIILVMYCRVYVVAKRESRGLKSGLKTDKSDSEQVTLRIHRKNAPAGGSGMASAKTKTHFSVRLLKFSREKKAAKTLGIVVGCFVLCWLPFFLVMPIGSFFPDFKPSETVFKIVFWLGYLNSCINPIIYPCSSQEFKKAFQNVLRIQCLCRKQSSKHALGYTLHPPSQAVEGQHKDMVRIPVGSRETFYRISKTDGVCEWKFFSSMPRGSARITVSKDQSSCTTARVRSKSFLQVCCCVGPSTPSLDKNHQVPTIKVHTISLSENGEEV
measured attribute: AC50

>>> reported_measurement("CO/N=C(\\C(=O)N[C@@H]1C(=O)N2C(C(=O)[O-])=C(C[N+]3(C)CCCC3)CS[C@H]12)c1csc(N)n1")
"> 300 µM"
>>> reported_measurement("CCCC(CCC)C(=O)O[C@H]1C[C@H]2CC[C@@H](C1)[N+]2(C)C")
"19 µM"
>>> reported_measurement("O=C(C[S+]([O-])C(c1ccccc1)c1ccccc1)NO (centres undefined)")
"> 30 µM"
>>> reported_measurement("Oc1ncnc2[nH]ncc12")
"> 30 µM"

----------
Target: Alpha-2B adrenergic receptor (Homo sapiens); note: assay procedure not described here
Sequence (P18089 whole entry): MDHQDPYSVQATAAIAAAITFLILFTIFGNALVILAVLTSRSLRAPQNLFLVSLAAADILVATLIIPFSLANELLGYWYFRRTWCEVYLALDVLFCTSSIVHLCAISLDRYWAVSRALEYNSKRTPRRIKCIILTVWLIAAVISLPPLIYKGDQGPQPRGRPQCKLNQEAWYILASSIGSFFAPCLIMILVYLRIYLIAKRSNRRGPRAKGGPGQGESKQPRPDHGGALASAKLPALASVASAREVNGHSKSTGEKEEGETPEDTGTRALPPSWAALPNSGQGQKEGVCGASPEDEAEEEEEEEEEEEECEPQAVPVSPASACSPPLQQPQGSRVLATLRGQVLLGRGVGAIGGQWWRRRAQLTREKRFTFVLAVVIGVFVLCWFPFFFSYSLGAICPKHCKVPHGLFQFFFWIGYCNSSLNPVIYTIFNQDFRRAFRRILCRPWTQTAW
The entries below are paired with their reported AC50.
measured attribute: AC50

>>> reported_measurement("NS(=O)(=O)c1cc(Cl)c(Cl)c(S(N)(=O)=O)c1 [DICHLORPHENAMIDE]")
"> 10 µM"
>>> reported_measurement("Cc1nc2ccc(CN(C)c3ccc(C(=O)N[C@@H](CCC(=O)O)C(=O)O)s3)cc2c(=O)[nH]1")
"> 30 µM"
>>> reported_measurement("C=C1C[C@@H]2[C@H](CC[C@]3(C)C(=O)CC[C@@H]23)[C@@]2(C)C=CC(=O)C=C12")
"> 10 µM"
>>> reported_measurement("N[C@@H](C(=O)N[C@@H]1C(=O)N2C(C(=O)O)=C(Cl)CS[C@H]12)c1ccccc1 [CEFACLOR ANHYDROUS]")
"> 30 µM"
>>> reported_measurement("N/N=c1/cc2c(n[nH]1)CCN(C(=O)c1ccccc1)C2")
"> 30 µM"
>>> reported_measurement("NC(CO)C(=O)NNCc1ccc(O)c(O)c1O (stereo unspecified) [BENSERAZIDE]")
"> 10 µM"
>>> reported_measurement("Nc1ncnc2c1ncn2[C@@H]1O[C@H](COP(=O)(O)O)[C@@H](O)[C@H]1O [ADENOSINE PHOSPHATE]")
"> 30 µM"
>>> reported_measurement("CCCCCCC(C)(C)c1cc(O)c2c(c1)OC(C)(C)C1CCC(=O)CC21 (stereo unspecified)")
"> 30 µM"
>>> reported_measurement("Cc1c(C(=O)Nc2ccc(N3C[C@@H](C)O[C@@H](C)C3)nc2)cccc1-c1ccc(OC(F)(F)F)cc1")
"> 10 µM"
>>> reported_measurement("CCCCCN(C)CCC(O)(P(=O)(O)O)P(=O)(O)O")
"> 30 µM"
>>> reported_measurement("NC(=O)c1ncn([C@@H]2O[C@H](CO)[C@@H](O)[C@H]2O)c1O")
"> 30 µM"

----------
Target: Alpha-2C adrenergic receptor (Homo sapiens); note: assay procedure not described here
Sequence (P18825 whole entry): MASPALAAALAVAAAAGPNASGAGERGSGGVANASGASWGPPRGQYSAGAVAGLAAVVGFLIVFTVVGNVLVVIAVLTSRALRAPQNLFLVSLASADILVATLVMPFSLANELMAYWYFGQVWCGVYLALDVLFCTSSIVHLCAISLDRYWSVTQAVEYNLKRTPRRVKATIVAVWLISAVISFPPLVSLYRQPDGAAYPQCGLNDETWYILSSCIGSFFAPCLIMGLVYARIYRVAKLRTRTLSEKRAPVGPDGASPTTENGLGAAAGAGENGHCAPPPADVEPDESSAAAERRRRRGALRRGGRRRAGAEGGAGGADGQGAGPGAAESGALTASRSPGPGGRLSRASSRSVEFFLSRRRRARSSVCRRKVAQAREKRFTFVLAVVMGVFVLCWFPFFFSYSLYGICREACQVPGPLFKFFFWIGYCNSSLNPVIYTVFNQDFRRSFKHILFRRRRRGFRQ
Assay type: functional
measured attribute: AC50

>>> reported_measurement("CC/C=C\\C/C=C\\C/C=C\\CCCCCCCC(=O)O")
"> 30 µM"
>>> reported_measurement("CC(C)(N)Cc1ccc(Cl)cc1")
"> 10 µM"
>>> reported_measurement("CC(C)(C(=O)c1cccnc1)c1cccnc1")
"> 10 µM"
>>> reported_measurement("CC(C(O)c1ccc(O)cc1)N1CCC(Cc2ccccc2)CC1 (centres undefined)")
"0.89 µM"
